Tested on: plantain
Assay: Greenhouse pot test, postemergent spray, visual control rating converted to percent control
Assay type: in vivo
Conditions: Test 3, 14 DAT; scale 1=no control, 9=death of plant
Text: Pots of crabgrass, dandelion, white clover, and plantain grown in greenhouse soiless growth media were sprayed with a greenhouse pot sprayer at 43.46 gallons of spray solution/acre and allowed to stand in the greenhouse. […]
MEASURED ENDPOINT: Control (1-9) Plantain
Could you keep your reply to the number by itself?

query: Checklist item: Control (1-9) Plantain tested on plantain, entry Cc1nn(-c2cc(NS(C)(=O)=O)c(Cl)cc2Cl)c(=O)n1C(F)F [Sulfentrazone @ 0.02 lbs/A] , value?
result: 9

query: Follow-up item: O=C(O)c1c(Cl)ccc2cc(Cl)cnc12 [Quinclorac @ 0.375 lbs/A]
result: 4

query: Same question, O=C(O)c1c(Cl)ccc2cc(Cl)cnc12 [Quinclorac @ 0.18 lbs/A] this time
result: 3

query: Also, Cc1cc(Cl)ccc1OCC(=O)OCCCCCC(C)C [MCPA IOE @ 1.10 lbs/A] please.
result: 7
